measurement.target: mu opioid receptor (mOR) (Homo sapiens, UniProt P35372)
Construct: expressed in transfected cells; host or cells: CHO or HEK293
Sequence (P35372 whole entry): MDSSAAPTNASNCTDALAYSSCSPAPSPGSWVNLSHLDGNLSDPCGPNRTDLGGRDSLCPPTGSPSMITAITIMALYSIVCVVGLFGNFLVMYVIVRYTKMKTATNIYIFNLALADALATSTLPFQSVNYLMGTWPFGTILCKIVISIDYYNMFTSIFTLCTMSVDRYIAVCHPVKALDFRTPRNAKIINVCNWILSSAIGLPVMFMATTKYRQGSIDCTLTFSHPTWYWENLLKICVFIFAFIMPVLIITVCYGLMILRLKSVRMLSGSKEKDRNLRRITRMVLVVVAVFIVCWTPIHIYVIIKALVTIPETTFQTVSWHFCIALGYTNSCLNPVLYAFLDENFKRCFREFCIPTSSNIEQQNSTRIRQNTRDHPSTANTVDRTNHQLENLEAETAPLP
measurement.notes: Mu opioid receptor radioligand binding
conditions.used: called weak affinity; read-out: Affinity at mu opioid receptors

compound	Ki [nM]
CC[C@H]1CC2C[C@H]3c4[nH]c5ccc(O)cc5c4CCN(C2)C13 [Noribogaine, 12-hydroxyibogamine]	900
